Where do the numbers come from? From patent US20120237937A1.

Listing of entries alongside the reported metabolite content of lung tissue.
# Procedure details: GC-MS quantification of total and 13C-enriched metabolites in paired normal and cancerous lung tissues
# Setup conditions: patient #7 (adenoC, grade II), normal tissue
Where a name gives a salt, the structure may show the parent alone.
Please reply with the bare figure in μmole/g dry weight and do not write the unit itself.

Worked examples, 4 compounds total:
>>> recorded_number("O=C(O)CCC(=O)O [Total Succ, succinate]")
0.50
>>> recorded_number("NC(=O)CC[C@H](N)C(=O)O [Total Gln, glutamine]")
1.41
>>> recorded_number("N[C@@H](CC(=O)O)C(=O)O [Total Asp, aspartate]")
3.83
>>> recorded_number("N[C@@H](CCC(=O)O)C(=O)O [Total Glu, glutamate]")
2.96

Input line: metabolite content of lung tissue lookup needed for CC(O)C(=O)O (stereo not shown) [lactate] , thanks.
Output line: 11.80

Input line: metabolite content of lung tissue lookup needed for C[C@H](N)C(=O)O [Total Ala, alanine] , thanks.
Output line: 6.25

Input line: metabolite content of lung tissue lookup needed for O=C(O)CC(O)(CC(=O)O)C(=O)O [Total Cit, citrate] , thanks.
Output line: 1.21
